System: membrane-associated phospholipase B (PLB activity)
experiment: Radiometric assay, membrane-associated PLB activity
Assay type: biochemical, Cryptococcus neoformans H99
applied.conditions: pH 4.0; modifier 10 mM (Triton X-100 0.1% w/v)
# Lookup of reported Membrane-associated PLB activity, percentage of the control keyed by entry
outcome.measure: Membrane-associated PLB activity, percentage of the control

INSERT INTO results (compound, reported_result) VALUES
  ('O=C(O)CN(CCN(CC(=O)O)CC(=O)O)CC(=O)O [EDTA, ethylenediaminetetraacetic acid]', '87%'),
  ('[Mg+2] [Magnesium]', '79%'),
  ('O=C(O)CN(CCOCCOCCN(CC(=O)O)CC(=O)O)CC(=O)O [EGTA, ethyleneglycoldiamine tetraacetic acid]', '77%'),
  ('[Cl][Fe]([Cl])[Cl] [FeCl3]', '92%'),
  ('[Ca+2] [Calcium]', '83%');
